All figures here come from patent US8895526B2.

System: tet-on competent MLL/AF9+Nras AML
Experiment: Pooled negative selection RNAi screening (deep sequencing)
Format: cell-based, mouse
Conditions: deep sequencing reads, On Dox compared to T0
From the text: In addition to the analysis of single shRNAs for inhibitory effects in vitro and in vivo, the combination of tet-on competent cancer models and tet-regulatable shRNA expression vectors allowing for monitoring shRNA expression through fluorescent and other reporter genes (e.g. TRMPV and derivates) facilitates pooled shRNA negative selection screening (FIG. 37). […]
readout name: Fold depletion in AML (Fold)

[
  {
    "molecule": "BRAF.3826: neutral control shRNA, SEQ ID NO: 192 (nucleic acid) TGCTGTTGACAGTGAGCGCCCCATTGTTTCTTCCAACTTATAGTGAAGCCACAGATGTATAAGTTGGAAGAAACAATGGGATGCCTACTGCCTCGGA",
    "assay value": 0.92
  },
  {
    "molecule": "Cacna1f.3314: shRNA, SEQ ID NO: 99 (nucleic acid) TGCTGTTGACAGTGAGCGACTGGCCTGCGCTACTATACAATAGTGAAGCCACAGATGTATTGTATAGTAGCGCAGGCCAGCTGCCTACTGCCTCGGA",
    "assay value": 12.52
  },
  {
    "molecule": "Pgam1.1811: shRNA, SEQ ID NO: 164 (nucleic acid) TGCTGTTGACAGTGAGCGCAAGGAGTGATGTGCAATACTTTAGTGAAGCCACAGATGTAAAGTATTGCACATCACTCCTTTTGCCTACTGCCTCGGA",
    "assay value": 20.18
  },
  {
    "molecule": "Dio2.2087: shRNA, SEQ ID NO: 112 (nucleic acid) TGCTGTTGACAGTGAGCGCCAGGAATTTGGTTAAATGGAATAGTGAAGCCACAGATGTATTCCATTTAACCAAATTCCTGTTGCCTACTGCCTCGGA",
    "assay value": 20.52
  },
  {
    "molecule": "Mn1.5864: neutral control shRNA, SEQ ID NO: 208 (nucleic acid) TGCTGTTGACAGTGAGCGCATCGCTATTGCACATGTATAATAGTGAAGCCACAGATGTATTATACATGTGCAATAGCGATTTGCCTACTGCCTCGGA",
    "assay value": 0.61
  },
  {
    "molecule": "Plod3.2501: shRNA, SEQ ID NO: 168 (nucleic acid) TGCTGTTGACAGTGAGCGAACCGTTGATATCCACATGAAATAGTGAAGCCACAGATGTATTTCATGTGGATATCAACGGTGTGCCTACTGCCTCGGA",
    "assay value": 12.30
  },
  {
    "molecule": "BRAF.3750: neutral control shRNA, SEQ ID NO: 191 (nucleic acid) TGCTGTTGACAGTGAGCGCTAGCATAATGACAATTATTTATAGTGAAGCCACAGATGTATAAATAATTGTCATTATGCTAATGCCTACTGCCTCGGA",
    "assay value": 0.76
  },
  {
    "molecule": "Map2k1.1200: neutral control shRNA, SEQ ID NO: 203 (nucleic acid) TGCTGTTGACAGTGAGCGAGCCTCTCAGCTCATATGGAATTAGTGAAGCCACAGATGTAATTCCATATGAGCTGAGAGGCCTGCCTACTGCCTCGGA",
    "assay value": 2.26
  },
  {
    "molecule": "Slc15a3.1086: shRNA, SEQ ID NO: 180 (nucleic acid) TGCTGTTGACAGTGAGCGCCTGGTTCTATTGGAGCATCAATAGTGAAGCCACAGATGTATTGATGCTCCAATAGAACCAGTTGCCTACTGCCTCGGA",
    "assay value": 10.29
  }
]
